B1: NETO1 (parent)
chain: KTSLLDQLTNTSGTVIGVTSCIVI

Variants of: B1
method description: protein stability index of a GFP-peptide fusion (GPS, HEK-293T) (PSI 1-6); higher = more stable;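 also: lentivirally expressed fusions sorted by FACS into six bins by GFP to DsRed ratio, PSI derived from sequencing read proportions per bin multiplied by bin number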
setup conditions: c terminus: a fixed tail appended
Class 1: protein stability index at least 3. Class -1: protein stability index below 3.

variant_designation=L5Q qualitative_label=1
variant_designation=T19C qualitative_label=-1
variant_designation=T11E qualitative_label=1
variant_designation=L4Q qualitative_label=1
variant_designation=N10M qualitative_label=1
variant_designation=I22H qualitative_label=-1
variant_designation=T14E qualitative_label=1
variant_designation=K1L qualitative_label=-1
variant_designation=T11W qualitative_label=1
variant_designation=K1G qualitative_label=-1
variant_designation=T14H qualitative_label=-1
variant_designation=S20L qualitative_label=-1
variant_designation=I22K qualitative_label=-1
variant_designation=T2R qualitative_label=1
variant_designation=N10E qualitative_label=1
variant_designation=G13M qualitative_label=1
